Each recorded value in this set is attributed to PubChem BioAssay (Tox21).

Assay: qHTS assay to identify small molecule antagonists of the progesterone receptor (PR) signaling pathway - cell viability counter screen (AID 1346798);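 also: HEK293T PR-UAS-bla cells stimulated with the agonist R5020; % is scaled to controls: 0 for no effect and ±100 for the full control effect; nearly all actives have a fitted effect of over 50% in size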
Details: PR-UAS-bla HEK293T viability, CellTiter-Glo luminescence, 16 h; series mostly up to 92.4 µM
Results filed as inconclusive are left out. The source made the active and inactive calls. Calls follow the shape of the dose curve; as a rule, active = well fitted cell-killing curve with a large enough effect in the repeat runs; inconclusive = weak or mixed curves, or effect the other way; inactive = no such curve, though single readings can be large or run the other way.
Metric: activity change, negative = cytotoxicity

Below, 5 molecules whose answers are already recorded.
N[C@@H](CCC(=O)N[C@@H](CS)C(=O)NCC(=O)O)C(=O)O; 2.33% [at 18.9 µM] (inactive)
CCn1ccc(NS(=O)(=O)c2ccc(N)cc2)nc1=O; inactive
O=P(O)(O)OP(=O)(O)O; inactive
Cc1cc(NC(=O)C2=C(O)c3ccccc3S(=O)(=O)N2C)no1; inactive
Nc1ccc(S(=O)(=O)Nc2ccc(Cl)nn2)cc1; inactive

Each of the following entries comes with a recorded value; kindly state activity change, negative = cytotoxicity for each.
1. CCCCCCCCC(=O)Cl
2. CC(CO)c1ccccc1 (stereo not drawn)
3. O=C1c2ccccc2C(=O)C1c1ccccc1
4. COCCOCCOCCOCCOCCO
5. O=C(/N=N/C(=O)OCc1ccccc1)OCc1ccccc1
6. Cc1nc2n(c(=O)c1CCN1CCC(c3noc4cc(F)ccc34)CC1)CCC[C@H]2O

Data returned:
inactive
inactive
inactive
inactive
inactive
-12.9% [at 18.9 µM] (inactive)

Each of the following entries comes with a recorded value; kindly state activity change, negative = cytotoxicity for each.
1. CC(C)=O
2. OC[C@H](Cc1cccc(O)c1)[C@H](CO)Cc1cccc(O)c1

Data returned:
inactive
inactive
